system: Recombinant human NK3 (hNK3) receptor (Homo sapiens, UniProt P29371)
Construct: expressed in transfected cells
assay: NK3 receptor binding, [3H]SR142801 displacement, membrane preparations
setup_conditions: second value of the cell NK1/NK3; read-out: pKi NK3 (converted)
reported_endpoint: Ki (nM)
Your answer should be a plain number; it is taken to be in nM.

CN(C(=O)C(C)(C)c1cc(C(F)(F)F)cc(C(F)(F)F)c1)c1cnc(N2CC[C@H](O)[C@H]2CO)cc1-c1ccc(F)cc1CO 1.51
Cc1cc(F)ccc1-c1cc(N2C[C@H](O)C[C@@H]2CO)ncc1N(C)C(=O)C(C)(C)c1cc(C(F)(F)F)cc(C(F)(F)F)c1 10
COc1ccccc1-c1cc(N2C[C@@H](O)C[C@H]2CO)ncc1N(C)C(=O)C(C)(C)c1cc(C(F)(F)F)cc(C(F)(F)F)c1 7.08
CN(C(=O)C(C)(C)c1cc(C(F)(F)F)cc(C(F)(F)F)c1)c1cnc(N2CCC[C@H]2CO)cc1-c1cc(Cl)ccc1Cl 1.45

// below: Ki requested for another molecule
Task: Observed Ki on Recombinant human NK3 (hNK3) receptor (Homo sapiens, UniProt P29371) for "CN(C(=O)C(C)(C)c1cc(C(F)(F)F)cc(C(F)(F)F)c1)c1cnc(N2CCC[C@H]2CO)cc1-c1ccccc1Br" , please.
Output: 1.82

----------
system: Recombinant human NK3 (hNK3) receptor (Homo sapiens, UniProt P29371)
Construct: expressed in transfected cells
assay: NK3 receptor binding, [3H]SR142801 displacement, membrane preparations
setup_conditions: second value of the cell pKi NK1/NK3; hNK3 receptor, [3H]SR142801
pKi: −log10 of the molar value.
Kindly return MET if reported pKi is no lower than 8; return NOT MET if it is lower.

Observe how each entry below is paired with its result.
compound	qualitative_label
CN(C(=O)C(C)(C)c1cc(C(F)(F)F)cc(C(F)(F)F)c1)c1cnc(N2CCCC[C@@H]2CO)cc1-c1ccccc1Cl [Example 160]	NOT MET
Cc1ccccc1-c1cc(N2CCS(=O)(=O)CC2CO)ncc1N(C)C(=O)C(C)(C)c1cc(C(F)(F)F)cc(C(F)(F)F)c1 (racemic) [Example 178]	MET
Cc1cc(F)ccc1-c1cc(N2C[C@H](O)C[C@H]2CO)ncc1N(C)C(=O)C(C)(C)c1cc(F)cc(C(F)(F)F)c1 [Example 25]	MET
Cc1cc(F)ccc1-c1cc(N2[C@H](CO)CC[C@@H]2CO)ncc1N(C)C(=O)C(C)(C)c1cc(C(F)(F)F)cc(C(F)(F)F)c1 [Example 197]	MET

Task: Test whether the compound CN(C(=O)C(C)(C)c1cc(C(F)(F)F)cc(C(F)(F)F)c1)c1cnc(N2CC[C@H](O)[C@H]2CO)cc1-c1ccccc1Cl [Example 138] records pKi of 8 or higher.
Output: MET

----------
system: human NK1 receptor (Homo sapiens)
assay: NK1 receptor binding, [3H]substance P displacement, CHO cell membranes
setup_conditions: first value of the cell pKi NK1/NK3; human NK1 receptor, [3H]substance P
pKi values, listed per item
Scale note: pKi = -log10(concentration in M).

The following compounds have reported results that may help.
compound	number
CC(=O)N[C@H]1C[C@@H](CO)N(c2cc(-c3ccccc3Cl)c(N(C)C(=O)C(C)(C)c3cc(C(F)(F)F)cc(C(F)(F)F)c3)cn2)C1	9.19
CN(C(=O)C(C)(C)c1cc(C(F)(F)F)cc(C(F)(F)F)c1)c1cnc(N2CC[C@H](O)C[C@@H]2CO)cc1-c1ccccc1Cl (racemic)	8.82
Cc1cc(F)ccc1-c1cc(N(C)C(CO)CO)ncc1N(C)C(=O)C(C)(C)c1cc(C(F)(F)F)cc(C(F)(F)F)c1	8.76
CN(C(=O)C(C)(C)c1cc(C(F)(F)F)cc(C(F)(F)F)c1)c1cnc(N2CCC(S(C)(=O)=O)C2)cc1-c1ccccc1Cl (racemic)	8.83
Cc1ccccc1-c1cc(N2CCOC[C@H]2CO)ncc1N(C)C(=O)C(C)(C)c1cc(C(F)(F)F)cc(C(F)(F)F)c1	8.79

Task: Fill in: pKi of "CN(C(=O)C(C)(C)c1cc(C(F)(F)F)cc(C(F)(F)F)c1)c1cnc(N2C[C@H](O)[C@@H](O)C2)cc1-c1ccccc1Cl" is ___
Output: 9.03

----------
system: Recombinant human NK3 (hNK3) receptor (Homo sapiens, UniProt P29371)
Construct: expressed in transfected cells
Sequence (P29371 1-465): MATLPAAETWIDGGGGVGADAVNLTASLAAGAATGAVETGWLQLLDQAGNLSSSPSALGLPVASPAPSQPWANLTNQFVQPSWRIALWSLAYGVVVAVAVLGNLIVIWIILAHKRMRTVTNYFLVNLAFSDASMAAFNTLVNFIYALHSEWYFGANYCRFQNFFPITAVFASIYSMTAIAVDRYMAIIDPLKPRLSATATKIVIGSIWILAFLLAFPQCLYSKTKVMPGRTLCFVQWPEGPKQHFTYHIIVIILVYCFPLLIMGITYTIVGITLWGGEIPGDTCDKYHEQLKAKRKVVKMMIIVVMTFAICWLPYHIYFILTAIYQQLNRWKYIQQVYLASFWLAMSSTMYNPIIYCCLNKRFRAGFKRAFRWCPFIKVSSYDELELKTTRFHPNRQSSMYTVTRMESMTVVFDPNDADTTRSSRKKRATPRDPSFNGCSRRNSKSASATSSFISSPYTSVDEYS
assay: NK3 receptor binding, [3H]SR142801 displacement, membrane preparations
setup_conditions: second value of the cell pKi NK1/NK3; hNK3 receptor, [3H]SR142801
reported_endpoint: Ki (nM)
Your answer is read as nM, so omit the unit and give the number.

molecule	system	result_units	Ki
Cc1cc(F)ccc1-c1cc(NCCO)ncc1N(C)C(=O)C(C)(C)c1cc(Cl)cc(Cl)c1 [Example 21]	Recombinant human NK3 (hNK3) receptor (Homo sapiens, UniProt P29371)	nM	8.71
CN(C(=O)C(C)(C)c1cc(C(F)(F)F)cc(C(F)(F)F)c1)c1cnc(N2CCC(N)CC2)cc1-c1ccccc1Cl [Example 112]	Recombinant human NK3 (hNK3) receptor (Homo sapiens, UniProt P29371)	nM	5.5
C[C@H](O)CNc1cc(-c2ccccc2Cl)c(N(C)C(=O)C(C)(C)c2cc(C(F)(F)F)cc(C(F)(F)F)c2)cn1 [Example 72]	Recombinant human NK3 (hNK3) receptor (Homo sapiens, UniProt P29371)	nM	26.3

Task: If you can, please state the reported Ki value of Cc1cc(F)ccc1-c1cc(NCCO)ncc1N(C)C(=O)C(C)(C)c1cc(C(F)(F)F)cc(C(F)(F)F)c1 [Example 68] .
Output: 3.24

Task: Value lookup for Ki; key = CN(C(=O)C(C)(C)c1cc(C(F)(F)F)cc(C(F)(F)F)c1)c1cnc(N2CCC(CO)C2)cc1-c1ccccc1Cl (racemic) [Example 171]
Output: 24.5

----------
system: human NK1 receptor (Homo sapiens, UniProt P25103)
Sequence (P25103 whole entry): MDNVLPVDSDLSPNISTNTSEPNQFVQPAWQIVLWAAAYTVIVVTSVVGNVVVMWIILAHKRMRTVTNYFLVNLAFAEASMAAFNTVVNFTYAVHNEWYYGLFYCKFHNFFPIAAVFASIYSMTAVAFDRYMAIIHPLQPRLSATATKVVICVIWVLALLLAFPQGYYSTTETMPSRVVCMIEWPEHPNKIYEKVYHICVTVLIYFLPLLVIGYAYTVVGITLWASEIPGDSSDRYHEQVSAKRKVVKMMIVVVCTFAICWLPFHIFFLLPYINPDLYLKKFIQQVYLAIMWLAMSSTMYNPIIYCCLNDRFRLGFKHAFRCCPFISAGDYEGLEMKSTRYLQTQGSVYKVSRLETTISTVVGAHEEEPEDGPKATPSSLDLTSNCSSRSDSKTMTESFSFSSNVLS
assay: NK1 receptor binding, [3H]substance P displacement, CHO cell membranes
setup_conditions: first value of the cell pKi NK1/NK3; human NK1 receptor, [3H]substance P
reported_endpoint: Ki (nM)
The answer is to be given in nM; state only the numeric part.

compound	system	Ki (nM)
CCN(C(C)=O)[C@@H]1CCN(c2cc(-c3ccc(F)cc3C)c(N(C)C(=O)C(C)(C)c3cc(C(F)(F)F)cc(C(F)(F)F)c3)cn2)C1 [Example 102]	human NK1 receptor (Homo sapiens, UniProt P25103)	1.95
Cc1cc(F)ccc1-c1cc(NC[C@H](C)O)ncc1N(C)C(=O)C(C)(C)c1cc(C(F)(F)F)cc(C(F)(F)F)c1 [Example 77]	human NK1 receptor (Homo sapiens, UniProt P25103)	0.646
Cc1cc(F)ccc1-c1cc(N2CCS(=O)(=O)CC2CO)ncc1N(C)C(=O)C(C)(C)c1cc(C(F)(F)F)cc(C(F)(F)F)c1 (racemic) [Example 177]	human NK1 receptor (Homo sapiens, UniProt P25103)	1.2
Cc1ccccc1-c1cc(N2C[C@H](O)C[C@H]2CO)ncc1N(C)C(=O)C(C)(C)c1cc(Cl)cc(OC(F)F)c1 [Example 37]	human NK1 receptor (Homo sapiens, UniProt P25103)	1.2

Task: Form field: reported Ki of CN(C(=O)C(C)(C)c1cc(C(F)(F)F)cc(C(F)(F)F)c1)c1cnc(N(CCO)CCO)cc1-c1ccc(F)cc1 [Example 88]
Output: 1.35

----------
Catalogue of Ki readings, one per entry.
system: human NK1 receptor (Homo sapiens)
assay: NK1 receptor binding, [3H]substance P displacement, CHO cell membranes
setup_conditions: first value of the cell NK1/NK3; read-out: pKi NK1 (converted)
Numbers only; they are read as nM.

CN(C(=O)C(C)(C)c1cc(C(F)(F)F)cc(C(F)(F)F)c1)c1cnc(N2C[C@@H](O)C[C@H]2CO)cc1-c1ccc(F)cc1C=O 1.62

Task: Consider the compound shown here: "Cc1ccc(-c2cc(N3CC[C@H](O)[C@H]3CO)ncc2N(C)C(=O)C(C)(C)c2cc(C(F)(F)F)cc(C(F)(F)F)c2)cc1" What is its recorded Ki?
Output: 3.63

Task: What Ki value was documented for this compound, "CN(C(=O)C(C)(C)c1cc(C(F)(F)F)cc(C(F)(F)F)c1)c1cnc(N2CC[C@H](O)[C@H]2CO)cc1-c1ccc(F)cc1C=O" ?
Output: 1.45

Reference source for all entries: patent US8404708B2
